biological target: CYP 2B6 (Homo sapiens (Human), UniProt P20813); assay: CYP inhibition in human liver microsomes, 2B6; assay type: in vitro ADME
Sequence (P20813 whole entry): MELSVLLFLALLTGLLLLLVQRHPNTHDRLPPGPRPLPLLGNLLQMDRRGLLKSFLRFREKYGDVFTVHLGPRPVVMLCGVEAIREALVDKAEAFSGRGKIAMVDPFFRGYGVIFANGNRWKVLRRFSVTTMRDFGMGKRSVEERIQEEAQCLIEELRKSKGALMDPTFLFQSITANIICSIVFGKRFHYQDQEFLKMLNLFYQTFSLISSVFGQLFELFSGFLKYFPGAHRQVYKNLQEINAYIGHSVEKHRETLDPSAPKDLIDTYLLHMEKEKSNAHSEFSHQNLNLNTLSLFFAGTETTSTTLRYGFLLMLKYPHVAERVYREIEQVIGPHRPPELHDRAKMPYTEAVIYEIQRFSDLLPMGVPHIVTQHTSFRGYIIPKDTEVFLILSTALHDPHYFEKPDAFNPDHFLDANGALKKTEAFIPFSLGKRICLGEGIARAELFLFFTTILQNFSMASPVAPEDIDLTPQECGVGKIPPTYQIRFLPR
measurement kind: IC50

Form: Entry = C#Cc1cc(Nc2ncnc3cc(OCCOC)ccc23)cc(OCCOCC)c1 | System = CYP 2B6 (Homo sapiens (Human), UniProt P20813) | IC50 = ____
> 50 µM

----------
assay: Protein binding in human plasma; type: in vitro ADME; settings: read-out: % Bound (converted)
measurement kind: fraction unbound
Numbers only.

Return reported fraction unbound; argument: C#Cc1cc(Nc2ncnc3cc(OCCOC)ccc23)cc(OCCOCC)c1 [Compound 1]
0.0303
